- System under test: Polyunsaturated fatty acid 5-lipoxygenase (Homo sapiens)
- Assay explanation: Inhibition of 5-LOX (unknown origin) at 10 uM
Readout: inhibition

In the examples that follow, each entry is paired with its recorded inhibition.
- Molecule smiles: "O=C(Cn1c(=O)sc2cc(C(=O)c3ccccc3)ccc21)Nc1ccccc1"
  System under test: "Polyunsaturated fatty acid 5-lipoxygenase (Homo sapiens)"
  Readout value: "6%"
- Molecule smiles: "O=C(Cn1c(=O)sc2cc(C(=O)c3ccccc3F)ccc21)Nc1cccc(Cl)c1"
  System under test: "Polyunsaturated fatty acid 5-lipoxygenase (Homo sapiens)"
  Readout value: "31%"

The compound Cc1ccnc(NC(=O)Cn2c(=O)sc3cc(C(=O)c4ccccc4F)ccc32)c1 showed inhibition equal to 19%

inhibition reported for this compound Cc1cccc(NC(=O)Cn2c(=O)sc3cc(C(=O)c4ccccc4Cl)ccc32)n1 : 28%

Record summary for Cc1ccnc(NC(=O)Cn2c(=O)sc3cc(C(=O)c4ccccc4)ccc32)c1 : reported inhibition = 11%

The recorded inhibition for entry Cc1ccnc(NC(=O)Cn2c(=O)sc3cc(C(=O)c4ccccc4Cl)ccc32)c1 equals 11%

The reported value for O=C(Cn1c(=O)sc2cc(C(=O)c3ccccc3Cl)ccc21)Nc1cccc(Cl)c1 in terms of inhibition is 35%
